Values compiled from patent US6355799B1.

System: green foxtail (Setaria viridis, SETVI)
measurement.description: Pre-emerge test, greenhouse herbicide activity screening
Type: in vivo
condition.parameters: 63 g ai/ha; rated 14 days after application; 0 = no damage, 100 = complete death
experimental.endpoint: Pre-emerge Herbicidal Activity, phytotoxicity rating (0-100), SETVI
Please give only the number in your answer, with no unit.

As a guide, the following entries are already answered.
# compound, data.value
measured = [
    ("COc1c(Cl)cc(F)c(-n2c(=O)cc(C(F)(F)F)n(C)c2=O)c1NC(=O)c1ccccc1F [2-39]", 100),
    ("COc1c(Cl)cc(F)c(-n2c(=O)cc(C(F)(F)F)n(C)c2=O)c1NC(=O)c1c(F)cccc1F [2-47]", 100),
    ("COc1c(Cl)cc(F)c(-n2c(=O)cc(C(F)(F)F)n(C)c2=O)c1NC(=O)C=Cc1ccc(Cl)cc1 [2-84]", 0),
]

Continue with the compound presented below.
Asked: Name the recorded Pre-emerge Herbicidal Activity, phytotoxicity rating (0-100), SETVI for COc1c(Cl)cc(F)c(-n2c(=O)cc(C(F)(F)F)n(C)c2=O)c1N(C(=O)COc1ccccc1)C(=O)COc1ccccc1 [2-120] .
Given back: 70
